Test system: OVCAR-8 ovarian
assay protocol: NCI-60 one-dose screen, 48 h
test conditions: 10 µM unless noted
Compounds without any hit were thinned out: in the full panel of roughly 83,000, 20% have a hit. Calls of active or inactive are those of the source. The calls were made as follows: active = growth percent below 10; inactive = the rest.
Labels: 1 (active), 0 (inactive)

| compound | class label |
| --- | --- |
| COc1ccc2cc([C@H](C)C(=O)N/N=C/c3ccc(Br)cc3)ccc2c1 | 0 |
| COc1ccc(-c2nc3cc(C)ccc3n2CC(=O)N=Nc2c(O)[nH]c3ccc(OC)cc23)cc1 | 1 |
| Nc1cc2ccccc2c(=O)n1NC(=O)c1ccc(I)cc1 | 0 |
| COc1ccc2[nH]cc(-c3cc(N)n4nc(-c5cn(C)c6ccccc56)cc4n3)c2c1 | 1 |
| CC12CC[C@@H]3[C@]4(C)COC(c5cn[nH]c5-c5cccc(Cl)c5)O[C@@H]4CC[C@@]3(C)[C@@H]1CC(C1=CCOC1=O)O2 (stereo partly drawn) | 0 |
| COc1ccc2nc(Nc3cccc(NC(=O)c4ccc(CN5CCCN(C)CC5)c(C(F)(F)F)c4)c3)ccc2c1 | 1 |
| CN(C)c1ccnc(CNCCSC2(c3ccccc3)c3ccccc3C=Cc3ccccc32)c1 | 1 |
| O=C(CN1C(=O)/C(=C/c2ccccc2F)SC1=S)N1CCOCC1 | 0 |
| COc1ccc(-c2nc3cc(C)ccc3n2CC(=O)N=Nc2c(O)[nH]c3ccc(Br)cc23)cc1 | 1 |
| O=C(Nc1ccc(C(F)(F)F)cc1)Nc1ccc2oc(=O)ccc2c1 | 0 |
| CC1(c2cc3cc(Cl)ccc3oc2=O)NC(=O)c2c(/C=C/C(=O)OC3CC4CCC3(C)C4(C)C)cccc2N1 (stereo not drawn) | 0 |
| Cc1c(C(=O)NNC(=O)c2ccc(Cl)cc2)nnn1-c1ccc(Cl)cc1 | 0 |
| COc1cc2c(c(OC)c1OC)C(=O)CC(c1cccc(NC(=O)c3cc(NC(=O)[C@H](CO)NC(=O)OC(C)(C)C)ccc3Cl)c1)O2 (stereo partly drawn) | 0 |
| Nc1n[nH]c2cccc(C#Cc3cccc(NC(=O)c4cccc(Cl)c4)c3)c12 | 0 |
| CC1(C)CC[C@]2(C(=O)Nc3ccc(F)cc3)CC[C@]3(C)C(=CCC4[C@@]5(C)C[C@@H](O)[C@H](O)[C@@](C)(CO)C5CC[C@]43C)C2C1 (stereo partly drawn) | 0 |
| C[C@H](Nc1nc(NCCc2ccccc2)nc2ccccc12)c1ccccc1 | 1 |
| O=S(=O)(Nc1cccc(-n2cnc3cc(-c4ccc(O)cc4)ccc32)c1)C1CC1 | 0 |
| COc1cc(CNC(=O)/C=C/c2ccc3c(c2)OCO3)ccc1OCc1cn(-c2cccc(C(F)(F)F)c2)nn1 | 1 |

====

Test system: OVCAR-3 ovarian
assay protocol: NCI-60 one-dose screen, 48 h
test conditions: 10 µM unless noted
Compounds without any hit were thinned out: in the full panel of roughly 83,000, 20% have a hit. Calls of active or inactive are those of the source. The calls were made as follows: active = growth percent below 10; inactive = the rest.
Labels: True for active, False for inactive

| compound | class label |
| --- | --- |
| COCOc1cc2c(=O)c(C)c(C(=O)N[C@@H](Cc3ccccc3)C(O)C(=O)NCc3ccccc3)oc2cc1OC (some centres not stated) | False |
| COc1ccccc1/C=C/C(=O)c1ccc(OC)c(S(N)(=O)=O)c1 | True |
| CN1CCN(Cc2ccc(C(=O)Nc3cccc(C#Cc4cccc5[nH]nc(N)c45)c3)cc2C(F)(F)F)CC1 | True |
| CC1=C(C(=O)OCc2ccccc2)C(c2c(O)cc(O)cc2O)n2c(nc3ccccc32)N1 (configuration not stated) | False |
| N#Cc1c(-c2ccc(Br)cc2)nc2n[nH]c(-c3ccc(Br)cc3)c2c1-c1ccc(C(F)(F)F)cc1 | False |
| COc1ccc(-c2ccnc(SCc3cc4ccccc4[nH]c3=O)n2)cc1 | False |
| COc1ccc2[nH]c(=O)c(CSc3nccc(-c4ccc(OC)c(OC)c4)n3)cc2c1 | False |
| O=C(c1ccc(OCCN2CCOCC2)cc1)C1[C@H](c2ccc(Cl)cc2)[C@@H](c2ccccc2)NC12C(=O)Nc1ccc(Cl)cc12 (some centres not stated) | False |
| Cc1nc(Nc2ccccn2)sc1C(=O)CC(SCC(=O)Nc1ccc(Cl)cc1)c1ccccc1F (configuration not stated) | True |
| COc1cc(C2CC(c3cc(OC)c(OC)c(OC)c3)=NN2C(C)=O)ccc1OCc1ccc(F)cc1 (configuration not stated) | False |
| CC(=O)Oc1ccccc1C(=O)[Se]C(=NC1CCCCC1)NC1CCCCC1 | True |
| COc1ccc(/C=C2\C(=O)Nc3ccc(Cl)cc32)cc1OCc1ccccn1 | False |
| CC(=O)N1CCN(Cc2ccc3c(NNC(=O)c4cnccn4)nc4cc(F)ccc4n23)CC1 | False |
| CC1=C(C(=O)OC(C)C)C(c2cccc(O)c2)NC(=S)N1 (configuration not stated) | False |
| COc1cc2oc(-c3cccc(NC(=O)[C@H](CC(N)=O)NC(=O)OC(C)(C)C)c3)cc(=O)c2c(OC)c1OC | False |
| Cn1cc(-c2cc(N)n3nc(-c4cn(C)c5ncccc45)cc3n2)c2cccnc21 | False |
| Cn1cc(-c2cc(N)n3nc(-c4cn(C)c5ncc(Br)cc45)cc3n2)c2cc(Br)cnc21 | True |
| Cn1cc(-c2nc(N)nnc2-c2c[nH]c3ccc(F)cc23)c2cc(Br)cnc21 | True |
| CC(=O)Nc1ccc(-n2cnc3cc(-c4ccc(O)cc4)ccc32)cc1C(F)(F)F | False |
| COc1ccc2[nH]cc(-c3nc(N)nnc3-c3cn(C)c4ncccc34)c2c1 | False |
| CC1=C(C(=O)c2ccccc2)C(c2cccc(Cl)c2Cl)n2c(nc3ccccc32)N1 (configuration not stated) | False |
| COc1ccc(-c2ccc(SCC(=O)Nc3ccc(S(N)(=O)=O)cc3Br)nn2)cc1 | False |
| NS(=O)(=O)c1ccc(CCNC(=O)CSc2ccc(-c3ccc(Br)cc3)nn2)cc1 | False |
| Nc1nnc(-c2c[nH]c3ncc(Br)cc23)c(-c2c[nH]c3ccc(F)cc23)n1 | False |
| O=C1Nc2ccc([N+](=O)[O-])cc2C1=Nc1ccccc1 | False |
| O=C(COc1ccc(NC(=O)Nc2ccc(Cl)c(Cl)c2)cc1)N=Nc1c(O)[nH]c2ccc([N+](=O)[O-])cc12 | False |
| COc1cc(-c2nc3ccc(C)cc3[nH]2)ccc1OCc1nnc(-c2ccc(Br)cc2)o1 | False |
| Cn1cc(NC(=O)c2cc(NC(=O)c3ccc(C#Cc4ccccc4)cc3)cn2C)cc1C(=O)NCCCN1CCOCC1 | False |
| COc1ccc(/C=C2\C(=N)N=C(SCc3nc4ccccc4[nH]3)NC2=O)cc1 | False |
| COc1cc(C2CC(c3ccc(S(=O)(=O)NCCNc4nc(Nc5ccc(F)cc5)nc(N(C)C)n4)cc3)=Nc3c(N)nc(N)nc3N2)cc(OC)c1OC (configuration not stated) | False |
| Cc1ccc(C(=O)CSc2nc3ccc(C)cc3c(=O)n2-c2ccc(F)cc2)cc1 | False |
| CC1CN(c2oc(-c3ccc([N+](=O)[O-])cc3)nc2C#N)CC(C)O1 (configuration not stated) | False |
| CN1CCN(c2ccc(C(=O)/C=C/c3cc(C(F)(F)F)cc(C(F)(F)F)c3)cc2)CC1 | True |
| Cc1ccc(C(SCCNCc2cc(N(C)C)ccn2)(c2ccccc2)c2ccccc2)cc1 | True |
| C=C1CC[C@@H]2[C@]3(C)COC(c4cn[nH]c4-c4ccc(Br)cc4)O[C@@H]3CC[C@@]2(C)[C@@H]1C/C=C1/C(=O)OCC1O (some centres not stated) | True |
| O=c1c2ccccc2nc(-c2ccccc2)n1/N=C/c1ccc2ccccc2c1 | False |
| O=C(C1=CNC(=S)NC1c1ccc(O)cc1)c1cc2ccccc2oc1=O (configuration not stated) | False |
